method_summary: Quantitative High-Throughput drug screen in 47 multiple myeloma cell lines against the NCATS MIPE library collection: OCIMY1_PLB cell viability assay (AID 1918979); further: nearly all actives have a fitted effect of over 35% in size
protocol_conditions: OCI-MY1 myeloma viability, CellTiter-Glo ATP, 48 h; series mostly up to 45.8 µM
Records with an inconclusive call do not appear. The source made the active and inactive calls. The call rests on the fitted dose curve; in most records, active means well fitted cell-killing curve with a large enough effect; inconclusive means small, poorly fitted or top-dose-only effect, or effect the other way; inactive means no such curve, though single readings can be large or run the other way.
Result category, one only: T (active), F (inactive)

Some entries whose results are on file:
O=C(Nc1ccccc1-c1cn2c(CN3CCNCC3)csc2n1)c1cnc2ccccc2n1
T
CC(C)OC(=O)C(C)(C)Oc1ccc(C(=O)c2ccc(Cl)cc2)cc1
F
N#C[C@H]1C[C@H]2C[C@@H]2N1C(=O)[C@@H](N)C12CC3CC(CC(O)(C3)C1)C2
F
Cc1ccc(/C=N/NC(=O)c2ccccc2Oc2ccccc2)o1
F
C[C@H]1[C@H](NC(=O)C(=NOC(C)(C)C(=O)O)c2csc(N)n2)C(=O)N1S(=O)(=O)O
F
CC(C)=CC[C@@H](O)C1=CC(=O)c2c(O)ccc(O)c2C1=O
T
NC(=O)c1cccc(-c2cc(Nc3ccc(OC(F)(F)F)cc3)ncn2)c1
F
O=c1ccn([C@@H]2O[C@H](CO)[C@H](O)[C@H]2O)c(=O)[nH]1
F

Exercise: Just curious, what result did COCCOC(=O)C1=C(C)NC2=C(C(=O)CC(c3ccccc3OC)C2)C1c1cccc(O)c1 (centres undefined) get here?
Solution: F

Exercise: How did this test come out for O=c1c(-c2ccc(O)cc2)coc2cc(OC3O[C@H](CO)[C@H](O)[C@H](O)[C@H]3O)cc(O)c12 (some centres undefined) ?
Solution: F

Exercise: In this assay, the call recorded for NC1CCC(Nc2nc(Nc3ccc(C(=O)N4CCCCC4)cc3)c3ncn(-c4cccc(F)c4)c3n2)CC1 (centres undefined) was what?
Solution: F

###

method_summary: qHTS of pediatric cancer cell lines to identify multiple opportunities for drug repurposing: Primary screen for TC32 cells (AID 1347089); further: nearly all actives have a fitted effect of over 60% in size
protocol_conditions: TC32 Ewing sarcoma viability, CellTiter-Glo luminescence, 48 h; series mostly up to 45.8 µM
Records with an inconclusive call do not appear. The source made the active and inactive calls. Calls come from the whole dose curve; as a rule, active = well fitted cell-killing curve with a large enough effect; inconclusive = small, poorly fitted or top-dose-only effect; inactive = flat fitted curve, though single readings scatter.
Pick one: active, inactive

CC(=O)c1ccc(S(=O)(=O)NC(=O)NC2CCCCC2)cc1
inactive

Exercise: Assay outcome for O=C(O)[C@H]1O[C@H](Oc2cc3oc(-c4ccccc4)cc(=O)c3c(O)c2O)[C@H](O)[C@@H](O)[C@H]1O : what was it?
Solution: inactive

Exercise: Hi, do you know how CS(=O)c1ccc(-c2nc(-c3ccc(F)cc3)c(-c3ccncc3)[nH]2)cc1 (stereo not given) came out in this test?
Solution: inactive

Exercise: Which outcome did this test record for the molecule Cc1c(O)cccc1C(=O)N[C@@H](CSc1ccccc1)[C@H](O)CN1C[C@H]2CCCC[C@@H]2C[C@@H]1C(=O)NC(C)(C)C ?
Solution: inactive

Exercise: For CCCCCCCCCCCC1=C(O)C(=O)C=C(O)C1=O , what call appears in the results of this test?
Solution: inactive

Exercise: Any idea what this test logged for Cc1[nH]c(C=C2C(=O)Nc3ccc(S(=O)(=O)Cc4c(Cl)cccc4Cl)cc32)c(C)c1C(=O)N1CCC[C@H]1CN1CCCC1 ?
Solution: inactive

Exercise: Hi, sorry to bother you, what did the test record for CC(=O)Nc1ccc([C@H](C)C(=O)Nc2ncc(C(C)C)s2)cc1 ?
Solution: active

Exercise: Could you kindly confirm the outcome this assay logged for O=C1NC(=O)C(=Cc2cccc(C(F)(F)F)c2)S1 ?
Solution: inactive

Exercise: State the result this test recorded for CN(C[C@@H]1COCCO1)S(=O)(=O)Nc1ccc2ccc3ncc(-c4cnn(C)c4)cc3c(=O)c2c1 .
Solution: inactive

Exercise: What outcome does the record of this test show for CN(C)CCC=C1c2ccccc2COc2ccc(CC(=O)O)cc21 ?
Solution: inactive

Exercise: What did the test return for CCC(=O)O[C@]1(C(=O)CO)CC[C@H]2[C@@H]3CCC4=CC(=O)CC[C@]4(C)[C@@H]3CC[C@@]21C ?
Solution: inactive

Exercise: What call does the record list for CC(C)(C(=O)NCC(F)(F)C(F)(F)F)C(=O)N[C@@H]1C(=O)Nc2ccccc2-c2ccccc21 ?
Solution: inactive
